Please go through the items and note down their pIC50.
- system-under-test: Arachidonate 5-lipoxygenase (Cavia porcellus)
- method-description: Inhibitory activity against 5-lipoxygenase in guinea pig leukocytes was determined
Scale: pIC50 equals -log10([C]), with [C] in mol/L.

**Query** Fill in: pIC50 of COc1ccc2[nH]c(-c3cc(C)c(O)c(C)c3)c(C)c2c1 [TZI-41127] is ___
**Result** 6.62

**Query** Fill in: pIC50 of Cc1ccnc(N2CCN(CCC3Cn4c(-c5cc(C)c(O)c(C)c5)c(C)c5cc(O)cc(c54)O3)CC2)c1 (configuration not stated) is ___
**Result** 6.74
